Measured values drawn from patent US12545637B2 for this set.

# protocol details: Detection of encapsulation efficiency, drug loading concentration and total RNA concentration (RiboGreen)
# Format: physicochemical
# protocol conditions: LNP formulation prepared from the cationic lipid
Would you please tag the item satisfied when its Total RNA concentration is 40 µg/mL or above, and not satisfied when it is below?

CCCCCC(CC)OC(=O)CCCCCCCCN(CCO)CCN(CCO)CCCCCCCCC(=O)OC(CC)CCCCC (stereo not shown): not satisfied
CCCCCCCCCCOC(=O)CCCCCN(CCO)CCCN(CCO)CCCCCC(=O)OCC(CCCCCCCC)CCCCCCCC: not satisfied

Req: Does the compound CCCCCCCCC(CCCCCCCC)OC(=O)CCCCCN(CCO)CCCCN(CCO)CCCCCC(=O)OC(CCCCCCCC)CCCCCCCC have recorded Total RNA concentration that is 40 µg/mL or more?
Resp: not satisfied

Req: API: above_or_equal(metric=Total RNA concentration, cutoff=40 µg/mL) for item CCCCCCCCC(CCCCCCCC)COC(=O)CCCCCN(CCCO)CCN(CCCO)CCCCCC(=O)OCC(CCCCCCCC)CCCCCCCC
Resp: satisfied

Req: Hello, I need to know if CCCCCCCCCCCOC(=O)CCCN(CCO)CCCN(CCO)CCCCCC(=O)OC(CCCCCCCC)CCCCCCCC has measured Total RNA concentration not below 40 µg/mL. Thanks!
Resp: not satisfied

Req: Record CCCCCCCCCCCOC(=O)CCCCCN(CCO)CCCCCCCC(=O)OC(CCCCCCCC)CCCCCCCC [SM-102, reference compound] ; criterion: Total RNA concentration no lower than 40 µg/mL. Met?
Resp: not satisfied

Req: Could you please find out whether CCCCCCCCCCOC(=O)CCCN(CCO)CCCN(CCO)CCCCCCOC(=O)CC(CCCCCC)CCCCCC has Total RNA concentration that meets 40 µg/mL or exceeds it?
Resp: not satisfied

Req: hey, is Total RNA concentration for this one >= 40 µg/mL? CCCCCCCCCCOC(=O)CCCCCN(CCO)CCN(CCO)CCCCCC(=O)OCC(CCCCCCCC)CCCCCCCC
Resp: not satisfied

Req: Determine whether this compound has Total RNA concentration no lower than 40 µg/mL: CCCCCCCCCCCCC(O)CN(C)CCCCCC(=O)OCC(CCCCCC)CCCCCCCC (stereo not shown) [HHMA, reference compound]
Resp: not satisfied

Req: Would you say CCCCCCCCC(CCCCCCCC)OC(=O)CCCCCN(CCO)CCN(CCO)CCCCCC(=O)OC(CCCCCCCC)CCCCCCCC shows Total RNA concentration at minimum 40 µg/mL?
Resp: satisfied

Req: For this compound, is measured Total RNA concentration 40 µg/mL or higher? CCCCCCCCCCCOC(=O)CCCN(CCO)CCCN(CCO)CCCCCC(=O)OCC(CCCCCCCC)CCCCCCCC
Resp: not satisfied
